Recorded measurements of growth, one per entry
test system: NCI/ADR-RES ovarian; assay: NCI-60 one-dose screen, 48 h (100 = growth as untreated, 0 = no growth, -100 = all killed); settings: 10 µM unless noted
The panel holds about 83,000 compounds, 20% with a hit somewhere; the sample as a whole holds those more often. The source made the active and inactive calls. The calls were made as follows: active = growth percent below 10; inactive = the rest.

Check out these entries, answers already filled in.
[[record]]
compound = "N/C(=N\\S(=O)(=O)c1ccccc1)Nc1nc2ccccc2s1"
parameter = "growth"
data_value = "91.8% (inactive)"

[[record]]
compound = "COc1ccc(-c2c(-c3cc(OC)c4c(c3)OCO4)noc2N)cc1"
parameter = "growth"
data_value = "13.8% (inactive)"

[[record]]
compound = "COc1ccc(-c2nc(SCCC(C)C)nc(Nc3ccc(F)c(Cl)c3)c2C#N)cc1"
parameter = "growth"
data_value = "81.4% (inactive)"

[[record]]
compound = "COc1ccc(-c2ccc(-c3ccc(-c4ccc(C(=N)N)cc4)s3)s2)cc1OC"
parameter = "growth"
data_value = "84% (inactive)"

[[record]]
compound = "Cc1[nH]c2ccc(F)cc2c1CCNC(=O)C1CCN(C(=O)c2ccccc2)C1 (centres undefined)"
parameter = "growth"
data_value = "97.6% [25 µM] (inactive)"

[[record]]
compound = "Clc1cc(Cl)cc(-c2ccc(-c3ccc(/C=N/NC4=NCCN4)cc3)s2)c1"
parameter = "growth"
data_value = "45.6% (inactive)"


Form: compound = `C=C(C)[C@@H]1C[C@@H]2Cc3cc(F)ccc3N1O2` ; growth = 99.6% (inactive)

Form: compound = `COc1cc(-c2nn(-c3cccc(NC(=O)Nc4cccc(C(F)(F)F)c4)c3)cc2-c2ccncc2)ccc1Cl` ; growth = -11.9% (active)

Form: compound = `COc1ccc(/C=N\NC(=O)CN2CCN(c3cc4c(cc3F)c(=O)c(C(=O)N/N=C/c3ccc(OC)c(OC)c3)cn4C3CC3)CC2)cc1OC` ; growth = 100% (inactive)
